The following compounds are listed with their measured log10(IC50) values.
- System: BT-549
- PROTOCOL SUMMARY: CCK-8 tumor cell proliferation, BT-549
- Format: cell-based
- TEST CONDITIONS: Homo sapiens, BT-549 cells, 72 hours
Hey, these are logged values: log10 of IC50, µM being the unit before logging.

Past entries and their recorded results:
Prompt line: Fill in: log10(IC50) of COc1nc(N2CCN(C(=O)NC34CC5CC(CC(C5)C3)C4)CC2)ccc1Nc1ncc2c(C)cc(=O)n(-c3cccc(NC(=O)C4CC4)c3)c2n1 is ___
Response line: -1.41

Prompt line: Fill in: log10(IC50) of COc1cc(N2CCN(CCCCNC(=O)CC34CC5CC(CC(C5)C3)C4)CC2)ccc1Nc1ncc2c(C)cc(=O)n(-c3cccc(NC(=O)C4CC4)c3)c2n1 is ___
Response line: -0.32

Prompt line: Fill in: log10(IC50) of COc1cc(N2CCN(C(=O)NC34CC5CC(CC(C5)C3)C4)CC2)ccc1Nc1ncc2c(C)cc(=O)n(-c3cccc(NC(=O)C4CC4)c3)c2n1 is ___
Response line: -0.85

New cases:
Prompt line: Fill in: log10(IC50) of COc1cc(N2CCN(C(=O)C34CC5CC(CC(C5)C3)C4)CC2)ncc1Nc1ncc2c(C)cc(=O)n(-c3cccc(NC(=O)C4CC4)c3)c2n1 is ___
Response line: -0.20

---

- Tested on: PC-9
- PROTOCOL SUMMARY: CCK-8 tumor cell proliferation, PC-9
- Type: cell-based
- TEST CONDITIONS: Homo sapiens, PC-9 cells, 72 hours
Grouping key: IC50. Bins: band 1 (below 0.08 µM), band 2 (0.08 µM to below 0.3 µM), band 3 (0.3 µM or more)

Prompt line: # bin label for COc1cc(N2CCN(CCCCCCCCCCCCNC(=O)CC34CC5CC(CC(C5)C3)C4)CC2)ccc1Nc1ncc2c(C)cc(=O)n(-c3ccc(NC(=O)C4CC4)cc3)c2n1
Response line: band 3

Prompt line: # bin label for C=CC(=O)Nc1ccc(-n2c(=O)cc(C)c3cnc(Nc4ccc(N5CCN(CCCCCCCCCCCCNC(=O)CC67CC8CC(CC(C8)C6)C7)CC5)cc4OC)nc32)cc1
Response line: band 3

Prompt line: # bin label for COc1cc(N2CCN(CCCCCCCCCCCCNC(=O)CC34CC5CC(CC(C5)C3)C4)CC2)ccc1Nc1ncc2c(C)cc(=O)n(-c3cccc(NC(C)=O)c3)c2n1
Response line: band 2

Prompt line: # bin label for COc1cc(N2CCN(CCCCCCCCCCCCNC(=O)CC34CC5CC(CC(C5)C3)C4)CC2)ccc1Nc1ncc2c(C)cc(=O)n(-c3cccc(NC(=O)C4CCCCC4)c3)c2n1
Response line: band 3

Prompt line: # bin label for COc1cc(N2CCN(CCCCCCCCCCCCNC(=O)CC34CC5CC(CC(C5)C3)C4)CC2)ccc1Nc1ncc2c(C)cc(=O)n(-c3cccc(NC(=O)C4CC4)c3)c2n1
Response line: band 2

---

- TESTED ON: UniProt:Q9Y243
- PROTOCOL SUMMARY: Western Blot, degradation of AKT3 protein in H1975-OR cells
- Assay type: cell-based
- Design: endogenous in cells; host or cells: H1975-OR (osimertinib-resistant H1975)
- TEST CONDITIONS: 1000 nM, 24 hours, maximum degradation rate
Grouping key: Dmax at 1 µM. Bins: LOW = under 40%, MEDIUM = from 40% up to 70%, HIGH = 70% and over

Worked set:
Prompt line: # bin label for COc1cc(N2CCN(CCCCCCCCCCCCNC(=O)CC34CC5CC(CC(C5)C3)C4)CC2)ccc1Nc1ncc2c(C)cc(=O)n(C3CCCC3)c2n1
Response line: MEDIUM

Prompt line: # bin label for COc1cc(N2CCN(CCCCCCCCCCCCNC(=O)CC34CC5CC(CC(C5)C3)C4)CC2)ccc1Nc1ncc2c(C)cc(=O)n(-c3cccc(N)c3)c2n1
Response line: HIGH

Prompt line: # bin label for CCC(=O)Nc1cccc(-n2c(=O)cc(C)c3cnc(Nc4ccc(N5CCN(CCCCCCCCCCCCNC(=O)CC67CC8CC(CC(C8)C6)C7)CC5)cc4OC)nc32)c1
Response line: MEDIUM

Prompt line: # bin label for COc1cc(N2CCN(CCCCCCCCCCCCNC(=O)CC34CC5CC(CC(C5)C3)C4)CC2)ccc1Nc1ncc2c(C)cc(=O)n([C@H]3CCC[C@@H](C(=O)NC4CC4)C3)c2n1
Response line: LOW

Prompt line: # bin label for COc1cc(N2CCN(CCCCCCCCNC(=O)C34CC5CC(CC(C5)C3)C4)CC2)ccc1Nc1ncc2c(C)cc(=O)n(-c3cccc(NC(=O)C4CC4)c3)c2n1
Response line: MEDIUM

New cases:
Prompt line: # bin label for COc1cc(OCCOCCCCCCCCCCCCNC(=O)CC23CC4CC(CC(C4)C2)C3)ccc1Nc1ncc2c(C)cc(=O)n(-c3cccc(NC(=O)C4CC4)c3)c2n1
Response line: HIGH

Prompt line: # bin label for COc1cc(N2CCN(CCCCCCCCNC(=O)[C@@]34CC5C[C@@](C)(C[C@@](C)(C5)C3)C4)CC2)ccc1Nc1ncc2c(C)cc(=O)n(-c3cccc(NC(=O)C4CC4)c3)c2n1
Response line: MEDIUM

Prompt line: # bin label for COc1cc(N2CCN(CCCCCCCCCCCCNC(=O)CC34CC5CC(CC(C5)C3)C4)CC2)ccc1Nc1ncc2c(C)cc(=O)n(-c3cccc(NC(C)=O)c3)c2n1
Response line: HIGH

Prompt line: # bin label for COc1cc(N2CCN(CCCCCCCCCCCCNC(=O)CC34CC5CC(CC(C5)C3)C4)CC2)ccc1Nc1ncc2c(C)cc(=O)n(-c3ccccc3)c2n1
Response line: LOW

Prompt line: # bin label for COc1cc(N2CCN(CCCCCCCCCCCCNC(=O)CC34CC5CC(CC(C5)C3)C4)CC2)ccc1Nc1ncc2c(C)cc(=O)n([C@H]3CCN(C(=O)C4CC4)C3)c2n1
Response line: LOW

---

The following compounds are listed with their measured Dmax at 1 µM values.
- TESTED ON: AKT3 (Homo sapiens)
- Sequence (Q9Y243 whole entry): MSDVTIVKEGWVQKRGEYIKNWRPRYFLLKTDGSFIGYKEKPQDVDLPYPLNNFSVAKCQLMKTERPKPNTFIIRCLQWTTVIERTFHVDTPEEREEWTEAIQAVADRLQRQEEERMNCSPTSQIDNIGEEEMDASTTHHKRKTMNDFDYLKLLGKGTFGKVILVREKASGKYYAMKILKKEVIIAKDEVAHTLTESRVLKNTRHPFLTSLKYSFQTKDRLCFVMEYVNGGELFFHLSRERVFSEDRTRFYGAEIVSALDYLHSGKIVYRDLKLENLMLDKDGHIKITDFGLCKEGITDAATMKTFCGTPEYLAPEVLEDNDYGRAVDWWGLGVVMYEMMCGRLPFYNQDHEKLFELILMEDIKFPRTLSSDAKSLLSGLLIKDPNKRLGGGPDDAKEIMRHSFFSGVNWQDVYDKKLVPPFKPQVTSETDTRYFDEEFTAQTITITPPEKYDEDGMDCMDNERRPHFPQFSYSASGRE
- PROTOCOL SUMMARY: Western Blot, degradation of AKT3 protein in H1975-OR cells
- Assay type: cell-based
- Set-up: endogenous in cells; host or cells: H1975-OR (osimertinib-resistant H1975)
- TEST CONDITIONS: 1000 nM, 24 hours, maximum degradation rate
Note: unit % is implicit; provide only the numeric part.

Past entries and their recorded results:
Prompt line: Fill in: Dmax at 1 µM of COc1cc(N2CCN(CCCCCCCCCCCCNC(=O)CC34CC5CC(CC(C5)C3)C4)CC2)ccc1Nc1ncc2c(C)cc(=O)n(-c3cccc(N(C)C)c3)c2n1 is ___
Response line: 37.9

Prompt line: Fill in: Dmax at 1 µM of COc1cc(N2CCN(CCCCCCCCCCCCNC(=O)CC34CC5CC(CC(C5)C3)C4)CC2)ccc1Nc1ncc2c(C)cc(=O)n([C@H]3CCC[C@@H](NC(=O)C4CC4)C3)c2n1 is ___
Response line: 41.4

Would you kindly look at the next entry?
Prompt line: Fill in: Dmax at 1 µM of COc1cc(N2CCN(CCCCCCCCCCCCNC(=O)CC34CC5CC(CC(C5)C3)C4)CC2)ccc1Nc1ncc2c(C)cc(=O)n(-c3cccc(NCC4CC4)c3)c2n1 is ___
Response line: 28

---

- System: HCC827
- PROTOCOL SUMMARY: CCK-8 tumor cell proliferation, HCC827
- Format: cell-based
- TEST CONDITIONS: Homo sapiens, HCC827 cells, 72 hours
The following compounds are listed with their measured IC50 values.
Note: unit µM is implicit; provide only the numeric part.

Prompt line: Fill in: IC50 of COc1cc(N2CCN(CCCCCCCCCCCCNC(=O)CC34CC5CC(CC(C5)C3)C4)CC2)ccc1Nc1ncc2c(C)cc(=O)n(-c3cccc(NC(=O)C4CC4)c3)c2n1 is ___
Response line: 0.0932

Prompt line: Fill in: IC50 of COc1cc(N2CCN(CCCCCCCCCCCCNC(=O)CC34CC5CC(CC(C5)C3)C4)CC2)ccc1Nc1ncc2c(C)cc(=O)n(C3CCCC3)c2n1 is ___
Response line: 1.4

New cases:
Prompt line: Fill in: IC50 of COc1cc(N2CCN(CCCCCCCCCCCCNC(=O)CC34CC5CC(CC(C5)C3)C4)CC2)ccc1Nc1ncc2c(C)cc(=O)n(-c3cccc(NC(=O)C(C)(C)C)c3)c2n1 is ___
Response line: 0.549

---

- TESTED ON: AKT1 (Homo sapiens)
- Construct: AKT1, AKT2, and AKT3 proteins in H1975-OR cells; endogenous in cells; host or cells: H1975-OR (osimertinib-resistant H1975)
- Sequence (P31749 whole entry): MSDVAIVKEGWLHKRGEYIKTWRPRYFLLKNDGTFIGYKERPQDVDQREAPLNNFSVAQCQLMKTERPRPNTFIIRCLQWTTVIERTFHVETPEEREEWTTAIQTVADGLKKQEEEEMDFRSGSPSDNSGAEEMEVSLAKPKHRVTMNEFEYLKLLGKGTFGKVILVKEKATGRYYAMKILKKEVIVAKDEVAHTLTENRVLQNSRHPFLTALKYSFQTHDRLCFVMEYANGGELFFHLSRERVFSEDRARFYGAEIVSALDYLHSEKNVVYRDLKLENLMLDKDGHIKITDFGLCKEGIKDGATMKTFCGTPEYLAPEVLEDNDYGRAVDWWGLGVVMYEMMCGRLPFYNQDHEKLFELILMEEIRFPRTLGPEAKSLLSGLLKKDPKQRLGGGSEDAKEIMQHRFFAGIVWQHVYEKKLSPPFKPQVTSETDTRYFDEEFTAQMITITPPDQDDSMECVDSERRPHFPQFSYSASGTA
- PROTOCOL SUMMARY: Western Blot, degradation of AKT1 protein in H1975-OR cells
- Format: cell-based
- TEST CONDITIONS: 1000 nM, 24 hours, maximum degradation rate
MEASURED ATTRIBUTE: Dmax at 1 µM
Report field: quantity (unit follows the number).

Past entries and their recorded results:
Prompt line: Fill in: Dmax at 1 µM of CCC(=O)Nc1cccc(-n2c(=O)cc(C)c3cnc(Nc4ccc(N5CCN(CCCCCCCCCCCCNC(=O)CC67CC8CC(CC(C8)C6)C7)CC5)cc4OC)nc32)c1 is ___
Response line: 0%

Prompt line: Fill in: Dmax at 1 µM of COc1cc(N2CCN(CCCCCCCCCCCCNC(=O)CC34CC5CC(CC(C5)C3)C4)CC2)ccc1Nc1ncc2c(C)cc(=O)n([C@H]3CCC[C@@H](C(=O)NC4CC4)C3)c2n1 is ___
Response line: 0%

Prompt line: Fill in: Dmax at 1 µM of CCc1cccc(-n2c(=O)cc(C)c3cnc(Nc4ccc(N5CCN(CCCCCCCCCCCCNC(=O)CC67CC8CC(CC(C8)C6)C7)CC5)cc4OC)nc32)c1 is ___
Response line: 0%

Prompt line: Fill in: Dmax at 1 µM of CCCCCCCCN1CCN(c2ccc(Nc3ncc4c(C)cc(=O)n(-c5cccc(NC(=O)C6CC6)c5)c4n3)c(OC)c2)CC1 is ___
Response line: 40.5%

Prompt line: Fill in: Dmax at 1 µM of COc1cc(N2CCN(CCCCCCCCNC(=O)CC34CC5CC(CC(C5)C3)C4)CC2)ccc1Nc1ncc2c(C)cc(=O)n(-c3cccc(NC(=O)C(C)(C)C)c3)c2n1 is ___
Response line: 0%

New cases:
Prompt line: Fill in: Dmax at 1 µM of C=CC(=O)Nc1cccc(-n2c(=O)cc(C)c3cnc(Nc4ccc(N5CCN(CCCCCCCCNC(=O)CC67CC8CC(CC(C8)C6)C7)CC5)cc4OC)nc32)c1 is ___
Response line: 78.9%
